Test system: Bowes
Assay: drug sensitivity score (DSS) (DSS (unitless, 0-50 scale)); higher = more sensitive (stronger viability inhibition); extreme values may be limits of the assay
Conditions: 72 h; culture: 2D
Listed next: entries and their corresponding drug sensitivity score.
Give the value as a plain number.

Examples with their reported drug sensitivity score follow.
q: Can you look up drug sensitivity score on Bowes for COc1ccc(-c2ccc3c(N4CCOC[C@@H]4C)nc(N4CCOC[C@@H]4C)nc3n2)cc1CO [AZD8055] ?
a: 20.1

q: Please provide the recorded drug sensitivity score for COc1ccc(-c2nc(N3CCOCC3)c3sc(CN(C)c4ncc(C(=O)NO)cn4)cc3n2)cn1 [CUDC-907] , tested on Bowes.
a: 22.5

q: Please state recorded drug sensitivity score (tested on Bowes) of FC(F)(F)c1ccc(/C=C/c2nc(COc3ccc(CCCCn4ccnn4)cc3)co2)cc1 [Mubritinib]
a: 6.4

q: Hello, I am looking for reported drug sensitivity score with Bowes for Cc1cc(Nc2ncnc3ccc(NC4=NC(C)(C)CO4)cc23)ccc1Oc1ccn2ncnc2c1 [Tucatinib] . Could you help?
a: 0

q: I'm curious: which drug sensitivity score was measured for O=c1[nH]c(=O)n([C@H]2C[C@H](O)[C@@H](CO)O2)cc1C(F)(F)F [Trifluridine] tested on Bowes?
a: 0

Others:
q: Please provide the recorded drug sensitivity score for C[C@@H](Nc1cc(F)cc(F)c1)c1cc(C(=O)N(C)C)cc2c(=O)cc(N3CCOCC3)oc12 [AZD-8186] , tested on Bowes.
a: 2.6

q: GET /values?readout=drug sensitivity score&system=Bowes&item= CNC(=O)CN1CCC(Oc2cc3c(Nc4cccc(Cl)c4F)ncnc3cc2OC)CC1 [Sapitinib]
a: 0

q: Could you share what drug sensitivity score was measured for COC(=O)c1ccc2c(c1)[nH]c1ncnc(NCCCN3CCCCC3)c12 [UM729] , tested on Bowes?
a: 0

q: Lab note: need drug sensitivity score for Nc1nc(Cl)nc2c1ncn2[C@@H]1O[C@H](CO)[C@@H](O)[C@@H]1F [Clofarabine] on Bowes, anyone have it?
a: 10.9

q: Query the reported drug sensitivity score for Bowes; item: CCCS(=O)(=O)Nc1ccc(F)c(C(=O)c2c[nH]c3ncc(-c4ccc(Cl)cc4)cc23)c1F [Vemurafenib]
a: 2.4

q: Form field - read-out: drug sensitivity score; system: Bowes; submitted item: CCN(CC)Cc1ccc2cc(COC(=O)Nc3ccc(C(=O)NO)cc3)ccc2c1 [Givinostat]
a: 2

q: Please state recorded drug sensitivity score (tested on Bowes) of Nc1nccc(-c2c(-c3ccc(F)cc3)ncn2C2CCCCC2)n1
a: 0

q: Form field - read-out: drug sensitivity score; system: Bowes; submitted item: CC1=C2C[C@H]3[C@@H](CC[C@@H]4C[C@H](NS(C)(=O)=O)CC[C@@]43C)[C@@H]2CC[C@@]2(C1)O[C@@H]1C[C@H](C)CN[C@H]1[C@H]2C [Saridegib]
a: 0

* * *

Recorded measurements of drug sensitivity score, one per entry
Tested on: FM-MEL-6
Assay: drug sensitivity score (DSS) (DSS (unitless, 0-50 scale)); higher = more sensitive (stronger viability inhibition); extreme values may be limits of the assay
Conditions: 72 h; culture: 2D
Provide a numeric answer; units are not to be included.

q: Any idea what drug sensitivity score was measured for O=C(CCCCCCC(=O)Nc1ccc([C@H]2O[C@@H](CSc3nc(-c4ccccc4)c(-c4ccccc4)o3)C[C@@H](c3ccc(CO)cc3)O2)cc1)NO ?
a: 0.2

Others:
q: State the recorded drug sensitivity score for this entry: Cc1cccc(-c2[nH]c(CNc3ccccc3F)nc2-c2ccc3ncnn3c2)n1
a: 0

q: Value lookup for drug sensitivity score; key = CN1CCN(c2ccc3nc(-c4c(N)c5c(F)cccc5[nH]c4=O)[nH]c3c2)CC1
a: 0

q: // drug sensitivity score lookup, key: CO[C@@]12[C@H](COC(N)=O)C3=C(C(=O)C(C)=C(N)C3=O)N1C[C@@H]1N[C@@H]12
a: 0.8
